tested on: A549; assay: In vitro inhibition test for cancer cell proliferation (MTT), A549; type: cell-based; details: 24 h or 48 h after addition, unit inferred
measured.property: pIC50
Numbers only, as −log10 of the molar value.

[[record]]
molecule = "C[n+]1cn(Cc2cccs2)c2c1/C(=N/O)c1ccccc1C2=O"
tested_target = "A549"
quantitative_result = 4.95

[[record]]
molecule = "COCCn1c[n+](C)c2c1C(=O)c1ccccc1/C2=N\\O"
tested_target = "A549"
quantitative_result = 6.21

[[record]]
molecule = "CC(C)Cn1c[n+](C)c2c1C(=O)c1ccccc1/C2=N\\O"
tested_target = "A549"
quantitative_result = 5.61

[[record]]
molecule = "CCCn1c[n+](C)c2c1C(=O)c1ccccc1/C2=N\\O"
tested_target = "A549"
quantitative_result = 5.99

[[record]]
molecule = "Cn1c[n+](C)c2c1C(=O)c1ccccc1C2=NOC(C)(C)C"
tested_target = "A549"
quantitative_result = 6.22


Working through the 4 molecules below one at a time, give pIC50 for each.
1. CCC(C)Cn1c[n+](C)c2c1C(=O)c1ccccc1/C2=N\O (centres unmarked)
2. Cn1c[n+](C)c2c1C(=O)c1ccccc1/C2=N\OCC1OCCO1
3. CCCCn1c2c([n+](C)c1-c1cc(OC)c(OC)c(OC)c1)C(=NOCc1ccccc1)c1ccccc1C2=O
4. Cn1c[n+](C)c2c1C(=O)c1ccccc1C2=NOc1ccccc1

Result:
5.86
7.52
7.05
7.22

Could you report pIC50 for every entry in the following list?
1. CCON=C1c2ccccc2C(=O)c2c1[n+](C)cn2C.[I-]
2. C[n+]1cn(-c2ccccc2)c2c1/C(=N/O)c1ccccc1C2=O

Result:
1. 8.05
2. 4.91

----------
tested on: L929; assay: In vitro cell proliferation inhibition test (MTT), L929; assay type: cell-based; settings: 24 h or 48 h after addition, unit inferred
Threshold 20 µM. IC50 below it: criterion met. IC50 at it or above: criterion not met.

[[record]]
smiles_entry = "C[n+]1cn(-c2ccc(F)c(Cl)c2)c2c1/C(=N/O)c1ccccc1C2=O"
label = "criterion not met"

[[record]]
smiles_entry = "C[n+]1cn(-c2ccc(F)cc2)c2c1/C(=N/O)c1ccccc1C2=O"
label = "criterion not met"

[[record]]
smiles_entry = "Cn1c[n+](C)c2c1C(=O)c1ccccc1C2=NOCc1ccc([N+](=O)[O-])cc1"
label = "criterion not met"

[[record]]
smiles_entry = "Cn1c[n+](C)c2c1C(=O)c1ccccc1C2=NOc1ccccc1"
label = "criterion not met"


Problem: IC50 under 20 µM? Item: `CCCCn1c[n+](C)c2c1C(=O)c1ccccc1C2=NOC`
Result: criterion met

Problem: Below 20 µM on IC50? Entry `CCn1c[n+](C)c2c1C(=O)c1ccccc1/C2=N\O`
Result: criterion met

Problem: Could you please tell me whether IC50 recorded for `Cn1c[n+](C)c2c1C(=O)c1ccccc1C2=NOCc1ccc(F)cc1` is less than 20 µM?
Result: criterion met

Problem: Here's an entry: `Cc1cc(C)c(-n2c[n+](C)c3c2C(=O)c2ccccc2/C3=N\O)c(C)c1` . Is its IC50 below 20 µM?
Result: criterion not met

----------
tested on: A549; experiment: In vitro inhibition test for cancer cell proliferation (MTT), A549; assay type: cell-based; conditions: 24 h or 48 h after addition, unit inferred
measured.property: log10 IC50 (log10 of the value in µM)
// do not treat as linear: log10 of IC50, unit µM

Completed entries (count: 3):
[[record]]
smiles_entry = "C=CCON=C1c2ccccc2C(=O)c2c1[n+](C)cn2C"
quantitative_result = -1.22

[[record]]
smiles_entry = "COCCO/N=C1\\c2ccccc2C(=O)c2c1[n+](C)cn2C"
quantitative_result = -1.22

[[record]]
smiles_entry = "COc1ccc(Cn2c[n+](C)c3c2C(=O)c2ccccc2/C3=N\\O)cc1"
quantitative_result = -0.89


Look at each compound and report its log10 IC50.
1. CCCCn1c[n+](C)c2c1C(=O)c1ccccc1C2=NOC
2. COc1ccc(-n2c[n+](C)c3c2C(=O)c2ccccc2/C3=N\O)cc1
3. Cn1c[n+](C)c2c1C(=O)c1ccccc1/C2=N\O
4. C[n+]1cn(-c2cccc(F)c2)c2c1/C(=N/O)c1ccccc1C2=O
5. Cc1cc(C)c(-n2c[n+](C)c3c2C(=O)c2ccccc2/C3=N\O)c(C)c1
6. Cn1c[n+](C)c2c1C(=O)c1ccccc1C2=NOCc1ccccc1.[I-]

Result:
1. -0.28
2. 0.38
3. -0.28
4. 1.24
5. 0.05
6. -2.30
